# experimental protocol: in vitro
# Type: cell-based, human
# setup conditions: human; 25 µg/mL, 72 h, SRB; read-out: Cytotoxic Effect at 25 µg/mL (% Inhibition) ± SD, MCF-7
measured endpoint: inhibition at 72 h, 25 µg/mL (%)
One number for each entry, in %.

Task: Answer with the recorded inhibition at 72 h, 25 µg/mL for the compound listed here: CC[C@@]1(O)C(=O)OCc2c1cc1n(c2=O)Cc2cc3ccccc3nc2-1 [Camptothecin, reference compound]
Result: 93

----------
# experimental protocol: in vitro
# Type: cell-based, human
# setup conditions: human; 25 µg/mL, 72 h, SRB; read-out: Cytotoxic Effect at 25 µg/mL (% Inhibition) ± SD, A549
measured endpoint: inhibition at 72 h, 25 µg/mL (%)
One number for each entry, in %.

Task: Answer with the recorded inhibition at 72 h, 25 µg/mL for the compound listed here: CC[C@@]1(O)C(=O)OCc2c1cc1n(c2=O)Cc2cc3ccccc3nc2-1 [Camptothecin, reference compound]
Result: 87.7

Provenance of the data: paper PMC10458858
